Assay: physchem
Details: organic solvent or mixture, Solubility (room temp)
Excerpt: Lovastatin was produced, analyzed and released using methodology known in the art.
property-measured: solubility (mg/mL)
# output: bare number, implied unit mg/mL

So, "CC[C@H](C)C(=O)O[C@H]1C[C@@H](C)C=C2C=C[C@H](C)[C@H](CC[C@@H]3C[C@@H](O)CC(=O)O3)[C@H]21" ? Its solubility was 16

* * *

Test system: methane production by stool samples from IBS-C patients
Assay: Methane production by human stool in vitro
Format: cell-based
Conditions: stool samples from IBS-C patients in vitro
property-measured: inhibition of methane production

For reference, reported inhibition of methane production for CC[C@H](C)C(=O)O[C@H]1C[C@@H](C)C=C2C=C[C@H](C)[C@H](CC[C@@H](O)C[C@@H](O)CC(=O)O)[C@H]21 [lovastatin β-hydroxyacid] stands at ineffective

Recorded result, "CC(C)c1nc(N(C)S(C)(=O)=O)nc(-c2ccc(F)cc2)c1/C=C/[C@@H](O)C[C@@H](O)CC(=O)O" , inhibition of methane production: ineffective

Item: "CC(C)c1c(C(=O)Nc2ccccc2)c(-c2ccccc2)c(-c2ccc(F)cc2)n1CC[C@@H](O)C[C@@H](O)CC(=O)O" | inhibition of methane production: ineffective

* * *

Experiment: Lovastatin solubility (room temp)
Conditions: water, Solubility (room temp)
property-measured: solubility (µg/mL)
Report as a plain number; the unit µg/mL is understood.

Per the record, "CC[C@H](C)C(=O)O[C@H]1C[C@@H](C)C=C2C=C[C@H](C)[C@H](CC[C@@H]3C[C@@H](O)CC(=O)O3)[C@H]21" has solubility of 0.4
